Let's look at some compounds and their measured melting point.

q: // melting point lookup, key: COc1cc(Nc2c(C#N)cnc3cc(C#CCN4CCN(C)CC4)sc23)c(Cl)cc1Cl
a: 172 to 173 °C

q: Quick one: COc1cc(Nc2c(C#N)cnc3cc(-c4cccc(CN(C)C)c4)sc23)c(Cl)cc1Cl
a: 204 to 206 °C

q: Try this compound next: COc1cc(Nc2c(C#N)cnc3cc(/C=C/C(=O)OC(C)(C)C)sc23)c(Cl)cc1Cl
a: 224 °C (dec.)

q: Try COc1cc(Nc2c(C#N)cnc3cc(-c4cnc(C=O)n4C)sc23)c(Cl)cc1Cl next.
a: 225 to 227 °C
